Test system: Cryptococcus neoformans
experimental_setup: Concentration 20 uM; ASSAY_TEST Inhibition of Fungal Growth; detection method Resazurin; Absorption (OD600-OD570); plate type 384well; NBS; CORNING #3640
Description: Antifungal activity against Cryptococcus neoformans H99 ATCC 208821 (CO-ADD:FG_002); MIC in YNB media using NBS plates, by Resazurin OD(600-570)
Entries with a potency or affinity are not part of this list.
reported_endpoint: Inhibition

compound | Inhibition
c1ccc(-c2[nH]c3ccccc3c2C(c2ccccn2)N2CCCC2)cc1 (stereo not drawn) | -10.11%
CCCNC(=O)N1CCC2(CC1)CC(=O)c1cc(C)ccc1O2 | -8.06%

Below: the item to evaluate.
Prompt: Would you kindly share the measured Inhibition for `COc1cccc2c(C)nc(N=C(N)N)nc12.O=C(O)C(F)(F)F.O=C(O)C(F)(F)F` ?
Completion: -13.06%

###

System: Candida albicans
experimental_setup: 20 µM
Description: Antifungal activity against Candida albicans ATCC 90028 (CO-ADD:FG_001); MIC in YNB media using NBS plates, by OD630
Entries with a potency or affinity are not part of this list.
Hi there, I'd appreciate the recorded Inhibition for every entry that follows.
Numbers only, in %.

compound | units_of_measure | Inhibition
CN1CCN(c2nccc3[nH]c(-c4cccc(F)c4)cc23)CC1 | % | 5.85
Cn1ncc2c(N3CCOCC3)nc(NCCc3c[nH]c4ccccc34)nc21 | % | 4.1
CC(C)(C)c1cc(C(=O)N2CCN(c3nccnc3C#N)CC2)n(Cc2ccccc2)n1 | % | 6.36
CCC(Sc1nc2ccccc2o1)C(=O)Nc1nccs1 (stereo not given) | % | 9.07

Okay, next one:
Prompt: Find the measured Inhibition: item CCC(NC(=O)c1ccccc1NC(=O)c1ccc(C)cc1)C(=O)OC (stereo not given) , target or system Candida albicans.
Completion: 4.2

###

For each record, write down the corresponding Inhibition.
System: Cryptococcus neoformans
experimental_setup: Concentration 20 uM; ASSAY_TEST Inhibition of Fungal Growth; detection method Resazurin; Absorption (OD600-OD570); plate type 384well; NBS; CORNING #3640
Results with a measured potency or affinity are listed apart.
One number for each entry, in %.

molecule | Inhibition, %
CNC(=O)C1Cc2ccccc2N1C(=O)Cc1ccc(F)cc1 (centres undefined) | -12.98
CCc1ccccc1-n1c(C)cn2c3c(=O)n(C(C(=O)OC)C(C)C)c(=O)n(C)c3nc12 (centres undefined) | -8.91
CN1CCC(c2cc(-c3ccncc3)c(-c3ccc(F)cc3)[nH]2)CC1 | 8.69

Next up:
Prompt: State the recorded Inhibition for this entry: `CC(C)(C)c1cnc(NC(=O)c2ccccc2O)s1`
Completion: 5.21

###

Tested on: Klebsiella pneumoniae
experimental_setup: Concentration 20 uM; ASSAY_TEST Inhibition of Bacterial Growth; detection method Absorption (OD600); MEDIA CAMHB; plate type 384well; NBS; CORNING #3640; time 18 hr
Description: Antibacterial activity against Klebsiella pneumoniae MDR ATCC 70063 (CO-ADD:GN_003); MIC in CAMBH media using NBS plates, by OD(600)
Entries with a potency or affinity are not part of this list.
One threshold, 10%, splits the recorded Inhibition values: lower ones are true, equal or higher ones are false.

compound | class
Nc1ncc(Br)cc1-c1nc2cc(Cl)cnc2[nH]1 | false

Prompt: Quick check: Inhibition of CS(=O)(=O)c1ccc(C(=O)N(CC2CCCO2)c2nc3ccccc3s2)cc1[N+](=O)[O-] (stereo unspecified) under 10%?
Completion: true

Prompt: Threshold test, Inhibition < 10%: `Clc1ccc(CN2CCN(C3=NCCN3)CC2)cc1Cl`
Completion: false

Prompt: Determine if `Cc1cc(OCC(=O)NCc2ccccc2)c2cc(Br)ccc2n1` shows Inhibition strictly lower than 10%.
Completion: true

Prompt: Answer whether the compound `CC(C)(C(=O)Nc1ccc(F)cc1)n1cc(-c2ccccc2F)cn1` has Inhibition strictly less than 10%
Completion: false

Prompt: Identify whether the compound `COc1ccc(C2=NN(C3CCCCCC3)C(=O)C2(C)C)cc1OCCCCOc1ccc(-c2nn[nH]n2)cc1` records Inhibition below 10%.
Completion: true

###

Test system: Candida albicans
experimental_setup: 20 µM
Entries with a potency or affinity are not part of this list.
Each entry belongs to exactly one class, chosen by where its Inhibition falls: bottom range: < 3%; center range: ≥ 3% and < 5%; top range: ≥ 5%

# count of solved cases: 2
molecule | class
OC[C@H]1O[C@@H](n2c3ccc(Cl)cc3c3c(-c4cc5ccccc5o4)ncnc32)C(O)[C@H]1O (stereo partly drawn) | top range
CC(C)C(Oc1cccc2ccccc12)C(=O)O (stereo not drawn) | top range

Prompt: In plain terms, what class is CC1(COc2ccc(N3CCC(Oc4ccc(OC(F)(F)F)cc4)CC3)cc2)Cn2cc([N+](=O)[O-])nc2O1 (stereo not drawn) ?
Completion: top range

Prompt: # bin lookup: classify `O=C(NC1CC1)c1ccc(N2CCC(Cc3ccccc3)CC2)nc1` by its Inhibition
Completion: center range

Prompt: Could you place `Cl.c1ccc(Oc2ccc(-c3cc(N4CCNCC4)[nH]n3)cc2)cc1` in its proper category? Many thanks.
Completion: bottom range

Prompt: Band for `CCn1cnc2c(Nc3cc(F)cc(F)c3)nc(C#N)nc21` ?
Completion: center range

###

Test system: Cryptococcus neoformans
experimental_setup: Concentration 20 uM; ASSAY_TEST Inhibition of Fungal Growth; detection method Resazurin; Absorption (OD600-OD570); plate type 384well; NBS; CORNING #3640
Entries with a potency or affinity are not part of this list.
reported_endpoint: Inhibition (%)
Answers are plain numbers, in %.

Past entries and their recorded results:
molecule | reported_endpoint | assay_result
CC(C)(C)CN1C(=O)C(c2ccccc2)(c2ccccc2)N=C1N | Inhibition | 1.98
CCCn1nnc(NC(=O)COc2ccc(C3CCCCC3)cc2)n1 | Inhibition | -8.36
Nc1nccc2ccc(Oc3ccncc3)cc12 | Inhibition | -6.05
CCCc1ccc(S(=O)(=O)Nc2ccc(CN3CCN(CC4CC4)CC3)cc2)cc1 | Inhibition | -0.39
C[C@]1(O)C[C@@H](c2nc(-c3ccc4ccc(-c5ccccc5)nc4c3)c3c(N)nccn32)C1 [LINSITINIB] | Inhibition | -8.41

Record Inhibition per entry; entries follow.
1. CC(C)(C)c1cc(C(=O)Nc2cccnc2)cc(C(=O)Nc2cccnc2)c1
2. COC(=O)C1=C(C)NC(C)=C(C(=O)OC(C)C)C1c1cccc2nonc12 (centres undefined) [ISRADIPINE]
3. CCn1cnc2c(Nc3cc(F)cc(F)c3)nc(C#N)nc21
4. N#CCN(CCCCN1CCN(c2ccc(F)cc2)CC1)C(=O)OCc1ccccc1
5. Cc1ccc(S(=O)(=O)Nc2ccc(CN3CCN(C(=O)c4cccc(C#N)c4)CC3)cc2)cc1

Completion:
1. -7.29
2. -10.15
3. -1.23
4. -5.61
5. -7.61

Give measured Inhibition for every item shown.
1. COc1cccc(-c2cc3c(Nc4cccnc4)nccc3[nH]2)c1
2. CC1CS(=O)(=O)CCN1/N=C/c1ccc([N+](=O)[O-])o1 (centres undefined) [NIFURTIMOX]
3. Cc1cnc(N2CCN[C@@H](Cc3ccccc3)C2)nc1Oc1ccc(-n2ccnc2)cc1.Cl
4. COc1cc(C2=NCCN2)ccc1-n1cc(-c2cccc(C3=NCCN3)c2)nn1.O=CO.O=CO

Completion:
1: -6.63; 2: 5.99; 3: -5.74; 4: 7.56

###

System: Candida albicans
experimental_setup: 20 µM
Entries with a potency or affinity are not part of this list.
reported_endpoint: Inhibition (%)
Give bare numbers, in %.

Look over these answered cases.
compound | units_of_measure | assay_result
N=C(N)c1ccc(-c2cc(-c3ccccc3)on2)cc1 | % | 3.34
Cc1ccc(S(=O)(=O)n2cc(-c3ccnc(N)c3)c3cc(Br)cnc32)cc1 | % | 37.1
Nc1nccc2ccc(Oc3ccncc3)cc12 | % | 1.98
CNc1nnc(Sc2cnn(-c3ccccc3)c(=O)c2Cl)s1 | % | 4.99
CN1CCCC1CCO[C@](C)(c1ccccc1)c1ccc(Cl)cc1.O=C(O)/C=C/C(=O)O (some centres not stated) | % | 1.54

Your task in this section: give Inhibition for each listed record.
1. O=C(NC1=NCCS1)c1sc2cc(F)ccc2c1Cl
2. CCc1ccc([C@@H]2C[C@H](C(F)(F)F)n3ncc(C(=O)NCc4ccc(OC)cc4)c3N2)cc1
3. O=C(N[C@H](Cc1ccccc1)C(=O)Nc1ccccc1N1CCOCC1)c1cccs1

Completion:
1. 8.69
2. 5.42
3. 3.1

###

Tested on: Candida albicans
experimental_setup: 20 µM
Entries with a potency or affinity are not part of this list.
I'd be grateful if you could share measured Inhibition for these entries.
Answers are plain numbers, in %.

Examples from the recorded data:
compound | reported_endpoint | assay_result
Cc1ccccc1CN1CCC(O)(c2ccc(Cl)c(C(F)(F)F)c2)CC1 | Inhibition | 3.22
CC(C)(C)OC(=O)N1CCN(c2nccc(-c3ccc(-c4ccc(Cl)cc4)s3)n2)CC1 | Inhibition | 3.84
CCc1cc(=O)n(C)c(SC(C)C(=O)Nc2ccc(F)cc2)n1 (centres undefined) | Inhibition | 0.76
CS(=O)(=O)c1ccc(C(=O)N(CC2CCCO2)c2nc3ccccc3s2)cc1[N+](=O)[O-] (centres undefined) | Inhibition | 3.23
COc1ccc(-c2cc(NC(=O)c3ccc(F)cc3Cl)ccc2OC)cc1 | Inhibition | 5.2
O=C(Nc1c(O)cccc1-c1nc2c(C(=O)O)cccc2o1)c1cc(-c2ccccc2)on1 | Inhibition | 3.49
CC(C)n1ncc2c(C(=O)NCC(c3cccs3)N3CCOCC3)cc(-c3ccccc3)nc21 (centres undefined) | Inhibition | 4.59
COC(=O)c1cccc2oc(-c3cccc(OC)c3NC(=O)c3cc(-c4ccccc4)on3)nc12 | Inhibition | 8.19

Provide the reported Inhibition of each entry below, same order.
1. O=C(Nc1ccc(F)c(-c2nc3cc(-c4ccccc4)cnc3[nH]2)c1)N1CCCC1
2. CCC(=O)Nc1ccccc1C(=O)Nc1ccccn1
3. CC1(C)Cc2c(c(N3CCOCC3)nc3snc(Br)c23)CO1
4. CCNC(=O)C(C)Nc1nc(-c2cccnc2)nc2sc(C)c(C)c12 (centres undefined)
5. COc1ccc(S(=O)(=O)Nc2ccc(CN3CCN(C(=O)c4cccc(C#N)c4)CC3)cc2)cc1

Completion:
49.9
3.37
13.1
5.77
1.12

Prompt: What does the record list as Inhibition for Cc1ccc2[nH]c(C3CCCNC3)c(-c3ccncc3)c2c1.Cl.Cl (centres undefined) ?
Completion: 4.63
